Molecular target: SYK (Homo sapiens)
Construct: 2.5 nM SYK, 400 nM Biotin-Aha-Aha-KEDPDYEWPSAKK
Experiment: SYK flash plate assay (enzyme assay)
Assay type: biochemical
pIC50: −log10 of the molar value.
Collected pIC50 values appear next to each entry.

compound | pIC50
COc1cc(Nc2nc3c(N4CCN(C)CC4)nccn3n2)cc(OC)c1 | 5.52 to 6.52
Cn1ncc2ccc(Nc3nc4c(-c5ccccc5-c5ccccc5)nccn4n3)cc21 | 5.52 to 6.52
CC1(C)C(=O)Nc2cc(Nc3nc4c(N5CCC6(CC5)CNC(=O)O6)nccn4n3)ccc21 | > 7.00
COc1cc(Nc2nc3c(N4CCN(C(=O)CO)CC4)nccn3n2)cc(OC)c1 | 5.52 to 6.52
COc1cccc(Nc2nc3c(-c4ccccc4C#N)nccn3n2)c1 | > 7.00

Ask: Recorded pIC50 for Cn1cc(-c2nccn3nc(Nc4ccc5c(C(C)(O)C(F)(F)F)c[nH]c5c4)nc23)cn1 (stereo not drawn) , please?
Result: > 7.00

Ask: Recorded pIC50 for Cn1cc(-c2nccn3nc(Nc4ccc5c(c4)NC(=O)C(C)(C)O5)nc23)cn1 , please?
Result: 6.52 to 7.00

Ask: Recorded pIC50 for CC1(C)C(=O)Nc2cc(Nc3nc4c(N5CCC6(CN[C@H](C(F)(F)F)C6)C5)nccn4n3)ccc21 (stereo partly drawn) , please?
Result: > 7.00

Ask: Recorded pIC50 for COC(=O)C1CCN(c2nccn3nc(Nc4ccc5c(c4)NC(=O)C5(C)C)nc23)C1 (stereo not drawn) [E2] , please?
Result: > 7.00

====

Biological target: SYK (Homo sapiens, UniProt P43405)
Construct: 2.5 nM SYK, 400 nM Biotin-Aha-Aha-KEDPDYEWPSAKK
Test: SYK flash plate assay (enzyme assay)
Assay type: biochemical
Procedure: The kinase assay is performed either as 384-well Flashplate assay (for e.g. Topcount measurement) or as 384-well Image-Flashplate assay (for LEADseeker measurement). 2.5 nM SYK, 400 nM Biotin-Aha-Aha-KEDPDYEWPSAKK and 10 μM ATP (spiked with 0.3 μCi 33P-ATP/well) are incubated in a total volume of 50 μl (60 mM Hepes, 10 mM MgCl2, 1.2 mM Dithiothreitol, 0.02% Brij35, 0.1% BSA, pH 7.5) with or without test compound for 1 hours at 30° C. The reaction is stopped with 25 μl 200 mM EDTA. […]
assay.readout: IC50

Here is how some compounds turned out for IC50.
compound | system.tested | IC50
CC1(C)C(=O)Nc2cc(Nc3nc4c(NC(=O)c5ccc6c(c5)NCC6)nccn4n3)ccc21 [E129] | SYK (Homo sapiens, UniProt P43405) | 300 to 3000 nM
CC1(C)CC(=O)Nc2cc(Nc3nc4c(N5CC[C@]6(CC(=O)NC6=O)C5)nccn4n3)ccc21 [E49] | SYK (Homo sapiens, UniProt P43405) | < 100 nM
CC1(C)C(=O)Nc2cc(Nc3nc4c(N5C[C@H](O)C[C@@H]5c5ccccc5)nccn4n3)ccc21 (racemic) [C143] | SYK (Homo sapiens, UniProt P43405) | 100 to 300 nM
Cn1ncc2cc(-c3nccn4nc(Nc5ccc6c(c5)NC(=O)C6(C)C)nc34)ccc21 [E114] | SYK (Homo sapiens, UniProt P43405) | < 100 nM
Cc1nc2cc(Nc3nc4c(-c5ccc(CN6CCOCC6)c(F)c5)nccn4n3)ccc2[nH]1 [C59] | SYK (Homo sapiens, UniProt P43405) | 3000 to 50000 nM

Proceed to the following item.
Ask: Record lookup: for SYK (Homo sapiens, UniProt P43405), what IC50 belongs to CC1(C)CCNc2cc(Nc3nc4c(N5CCC6(CC5)CNC(=O)C6)nccn4n3)ccc21 [E77] ?
Result: < 100 nM

====

What follows is a record of pIC50 for UniProt:Q9P2K8.
Sequence (Q9P2K8 whole entry): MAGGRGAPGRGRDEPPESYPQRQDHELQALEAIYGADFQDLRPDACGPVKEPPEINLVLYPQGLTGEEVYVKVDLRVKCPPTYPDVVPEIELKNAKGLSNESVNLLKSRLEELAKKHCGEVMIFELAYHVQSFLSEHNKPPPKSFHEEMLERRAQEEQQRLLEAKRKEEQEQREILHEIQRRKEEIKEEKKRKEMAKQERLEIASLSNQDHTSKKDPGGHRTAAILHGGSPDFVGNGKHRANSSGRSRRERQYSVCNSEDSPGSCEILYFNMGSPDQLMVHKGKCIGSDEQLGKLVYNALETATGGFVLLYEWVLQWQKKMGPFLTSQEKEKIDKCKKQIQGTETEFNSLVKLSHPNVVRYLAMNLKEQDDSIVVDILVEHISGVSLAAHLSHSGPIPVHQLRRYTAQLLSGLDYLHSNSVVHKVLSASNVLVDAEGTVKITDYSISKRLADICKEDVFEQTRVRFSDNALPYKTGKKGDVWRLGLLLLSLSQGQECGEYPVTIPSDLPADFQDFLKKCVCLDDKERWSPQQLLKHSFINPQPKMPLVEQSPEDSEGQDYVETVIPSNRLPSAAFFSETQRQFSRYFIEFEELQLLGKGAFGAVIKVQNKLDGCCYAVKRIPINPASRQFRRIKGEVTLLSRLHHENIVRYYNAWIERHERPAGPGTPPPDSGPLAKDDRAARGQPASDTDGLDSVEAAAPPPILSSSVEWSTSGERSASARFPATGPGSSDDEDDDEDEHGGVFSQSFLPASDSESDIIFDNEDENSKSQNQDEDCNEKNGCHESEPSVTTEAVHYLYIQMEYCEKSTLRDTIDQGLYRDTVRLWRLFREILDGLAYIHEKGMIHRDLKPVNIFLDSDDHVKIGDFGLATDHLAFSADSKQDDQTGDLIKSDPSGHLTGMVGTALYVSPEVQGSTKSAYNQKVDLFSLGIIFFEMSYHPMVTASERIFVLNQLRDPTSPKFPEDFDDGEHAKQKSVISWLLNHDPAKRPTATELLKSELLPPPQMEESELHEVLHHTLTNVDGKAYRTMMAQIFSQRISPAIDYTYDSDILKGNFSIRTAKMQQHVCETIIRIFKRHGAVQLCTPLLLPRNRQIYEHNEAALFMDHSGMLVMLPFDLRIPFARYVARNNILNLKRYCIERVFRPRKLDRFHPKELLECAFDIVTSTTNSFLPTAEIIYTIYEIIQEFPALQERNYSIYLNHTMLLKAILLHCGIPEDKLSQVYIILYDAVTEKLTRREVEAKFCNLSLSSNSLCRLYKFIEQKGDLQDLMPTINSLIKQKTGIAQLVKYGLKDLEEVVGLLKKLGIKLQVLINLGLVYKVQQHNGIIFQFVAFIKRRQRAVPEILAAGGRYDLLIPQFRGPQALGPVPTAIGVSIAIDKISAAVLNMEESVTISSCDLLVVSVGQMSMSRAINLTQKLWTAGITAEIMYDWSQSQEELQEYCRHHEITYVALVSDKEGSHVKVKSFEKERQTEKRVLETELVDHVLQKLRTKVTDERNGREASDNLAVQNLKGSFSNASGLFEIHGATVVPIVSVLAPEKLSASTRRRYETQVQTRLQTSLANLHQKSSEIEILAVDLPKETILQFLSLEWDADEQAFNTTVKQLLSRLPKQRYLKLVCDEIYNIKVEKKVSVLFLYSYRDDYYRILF
pIC50: −log10 of the molar value.

Here is how some compounds turned out for pIC50.
compound | result
Cn1cc(-c2nccn3nc(Nc4ccc([S+](C)[O-])cc4)nc23)cn1 (stereo not drawn) [C32] | 4.30 to 5.52
Cn1cc(-c2nccn3nc(Nc4ccc5nnn(C)c5c4)nc23)cn1 [C30] | 5.52 to 6.52
Cn1cc(-c2nccn3nc(Nc4ccc5cc[nH]c5c4)nc23)cn1 [C111] | 5.52 to 6.52
Cn1cc(-c2nccn3nc(Nc4ccc5c(C(C)(C)O)n[nH]c5c4)nc23)cn1 [C72] | 5.52 to 6.52
Cn1cc(-c2nccn3nc(Nc4ccc5cnn(C)c5c4)nc23)cn1 [C21] | 4.30 to 5.52

Ask: Record lookup: for UniProt:Q9P2K8, what pIC50 belongs to Cn1cc(-c2nccn3nc(Nc4ccc(C5(C#N)CC5)cc4)nc23)cn1 [C63] ?
Result: 5.52 to 6.52

Ask: Record lookup: for UniProt:Q9P2K8, what pIC50 belongs to Cn1cc(-c2nccn3nc(Nc4ccc(S(N)(=O)=O)cc4)nc23)cn1 [C16] ?
Result: 4.30 to 5.52

Ask: Record lookup: for UniProt:Q9P2K8, what pIC50 belongs to CN1c2ccc(Nc3nc4c(-c5cnn(C)c5)nccn4n3)cc2CS1(=O)=O [C117] ?
Result: 5.52 to 6.52

Ask: Record lookup: for UniProt:Q9P2K8, what pIC50 belongs to Cn1cc(-c2nccn3nc(Nc4ccc5c(c4)CS(=O)(=O)N5)nc23)cn1 [C115] ?
Result: 4.30 to 5.52

Ask: Record lookup: for UniProt:Q9P2K8, what pIC50 belongs to CC1(C)C(=O)Nc2cc(Nc3nc4c(N5CCc6[nH]cnc6C5)nccn4n3)ccc21 [C103] ?
Result: 4.30 to 5.52

Ask: Record lookup: for UniProt:Q9P2K8, what pIC50 belongs to Cc1nc2cc(Nc3nc4c(-c5ccc(CN6CCOCC6)cc5)nccn4n3)ccc2[nH]1 [C57] ?
Result: 5.52 to 6.52

Ask: Record lookup: for UniProt:Q9P2K8, what pIC50 belongs to CC1(C)C(=O)Nc2cc(Nc3nc4c(N5CC[C@@H](O)C5)nccn4n3)ccc21 [C73] ?
Result: 4.30 to 5.52

Ask: Record lookup: for UniProt:Q9P2K8, what pIC50 belongs to Cc1nn(C)cc1-c1nccn2nc(Nc3ccc4c(c3)NC(=O)C4(C)C)nc12 [C69] ?
Result: 5.52 to 6.52

Ask: Record lookup: for UniProt:Q9P2K8, what pIC50 belongs to CC1(C)C(=O)Nc2cc(Nc3nc4c(N5CCC6(C5)NC(=O)NC6=O)nccn4n3)ccc21 (stereo not drawn) [C108] ?
Result: 4.30 to 5.52

Ask: Record lookup: for UniProt:Q9P2K8, what pIC50 belongs to Cn1cc(-c2nccn3nc(Nc4ccc5c(C(=O)C(F)(F)F)c[nH]c5c4)nc23)cn1 [C112] ?
Result: 4.30 to 5.52

====

What follows is a record of IC50 for SYK (Homo sapiens, UniProt P43405).

molecule | system.tested | IC50
CC1(C)C(=O)Nc2cc(Nc3nc4c(N5C[C@@H](O)C[C@@H]5c5cccc(F)c5)nccn4n3)ccc21 [E62] | SYK (Homo sapiens, UniProt P43405) | 300 to 3000 nM
CC1(C)C(=O)Nc2cc(Nc3nc4c(N5CCc6ccc(C(N)=O)cc6C5)nccn4n3)ccc21 [E128] | SYK (Homo sapiens, UniProt P43405) | < 100 nM

Proceed to the following item.
Ask: Recorded IC50 for Cn1cc(-c2nccn3nc(Nc4ccc5c(c4)NCCC5(C)C)nc23)cn1 [E21] , please?
Result: < 100 nM

====

Collected IC50 values appear next to each entry.
Target: SYK (Homo sapiens)
Construct: 2.5 nM SYK, 400 nM Biotin-Aha-Aha-KEDPDYEWPSAKK
Test: SYK flash plate assay (enzyme assay)
Type: biochemical

Here is how some molecules turned out for IC50.
molecule | IC50
Cc1nc2cc(Nc3nc4c(-c5ccc(CN6CCOCC6)cc5)nccn4n3)ccc2[nH]1 | 3000 to 50000 nM
CC1(C)C(=O)Nc2cc(Nc3nc4c(N5CCC(CNCC(F)(F)F)C5)nccn4n3)ccc21 (stereo not drawn) | 100 to 300 nM
CC1(C)C(=O)Nc2cc(Nc3nc4c(N5CCC6(CCNC6=O)CC5)nccn4n3)ccc21 | < 100 nM
CC1(C)C(=O)Nc2cc(Nc3nc4c(N5CCC[C@H]5CO)nccn4n3)ccc21 | 100 to 300 nM
CC1(C)C(=O)Nc2cc(Nc3nc4c(N5CCc6ccccc65)nccn4n3)ccc21 | < 100 nM

Ask: Record lookup: for SYK (Homo sapiens), what IC50 belongs to CC1(C)C(=O)Nc2cc(Nc3nc4c(NC5CCCNC5)nccn4n3)ccc21 (stereo not drawn) ?
Result: < 100 nM
